- assay_procedure: AUC in dog at 1 mg/kg, iv
- Type: ADME, organism-based, Canis lupus familiaris
- Parameters: dose 1 mg/kg
- reported_conditions: in vivo
experimental_endpoint: AUC (µM·h)
Reply with just the number (in µM·h).

The reported value for C[C@@H](NC(=O)c1ccc(Cl)cc1)[C@H]1CC[C@@H](c2ccnc3ccc(F)cc32)CC1 in terms of AUC is 8.7

###

- tgt: Indoleamine 2,3-dioxygenase 1 (Homo sapiens, UniProt P14902)
- Sequence (P14902 whole entry): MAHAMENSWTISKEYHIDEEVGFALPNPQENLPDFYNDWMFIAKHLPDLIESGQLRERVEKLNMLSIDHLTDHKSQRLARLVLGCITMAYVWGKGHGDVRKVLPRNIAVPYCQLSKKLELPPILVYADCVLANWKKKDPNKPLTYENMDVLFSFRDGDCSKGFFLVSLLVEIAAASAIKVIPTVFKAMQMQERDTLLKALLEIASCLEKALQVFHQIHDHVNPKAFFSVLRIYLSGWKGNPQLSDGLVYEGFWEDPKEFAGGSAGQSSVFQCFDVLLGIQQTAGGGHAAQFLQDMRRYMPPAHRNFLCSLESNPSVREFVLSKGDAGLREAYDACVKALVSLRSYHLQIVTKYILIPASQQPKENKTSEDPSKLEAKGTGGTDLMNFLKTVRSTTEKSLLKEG
- assay_procedure: Inhibition of IDO1 in IFNgamma/LPS-stimulated human whole blood preincubated for 4 hrs followed by IFNgamma/LPS stimulation and incubated for 18 hrs by Rapid-fire mass spectrometry analysis
- Assay type: tissue-based
Exercise: state measured pIC50 for each of the molecules provided.
Please keep in mind that pIC50 is minus log10 of the molar concentration; only the number is needed.

Field pIC50 (entry C[C@@H](c1nc2ccc(Cl)cc2[nH]1)[C@H]1CC[C@@H](c2ccnc3ccc(F)cc32)CC1 ) reads 7.55

Measured pIC50, C[C@@H](NC(=O)c1ccc(Cl)cc1)[C@H]1CC[C@@H](c2ccnc3ccc(F)cc32)CC1 : 7.60

Entry COc1ccc(C(=O)N[C@H](C)[C@H]2CC[C@@H](c3ccnc4ccc(F)cc43)CC2)cc1N1CCOCC1 — recorded pIC50 = 7.46

Measured pIC50, C[C@@H](NS(=O)(=O)c1ccc(Cl)cc1)[C@H]1CC[C@@H](c2ccnc3ccc(F)cc32)CC1 : 6.32

Lab note: C[C@@H](CNc1ccc(Cl)cc1)[C@H]1CC[C@@H](c2ccnc3ccc(F)cc32)CC1 gave pIC50 of 7.36

Notebook: C[C@@H](NC(=O)c1ccc(-c2ccccc2)cc1)[C@H]1CC[C@@H](c2ccnc3ccc(F)cc32)CC1 , pIC50 read as 7.66

For reference, reported pIC50 for C[C@@H](NC(=O)C1CCCCC1)[C@H]1CC[C@@H](c2ccnc3ccc(F)cc32)CC1 stands at 6.53

pIC50 for C[C@@H](NC(=O)Cc1ccc(Cl)cc1)[C@H]1CC[C@@H](c2ccnc3ccc(F)cc32)CC1 is 6.11
